experiment: Plasma pharmacokinetics, 7 once-daily oral doses, healthy volunteers; type: in vivo, human; conditions: male, human, plasma, oral, 192 mg, Day 7, plasma, healthy volunteers; read-out: Tmax Min, Max
attributeMeasured: Tmax

Exercise: Please give the measured Tmax for this compound: `Cc1ccc(C(=O)NNC(=O)c2c(C)cccc2Cl)cc1C#Cc1cnc2ccccc2c1`
Key: 4.01 to 4.08 h

---

assay: Plasma pharmacokinetics, 7 once-daily oral doses, healthy volunteers; type: in vivo, human; settings: male, human, plasma, oral, 384 mg, Day 7, plasma, Healthy Subjects, Table 10; read-out: Cmax Mean
attributeMeasured: Cmax (ng/mL)
Just the number in ng/mL, nothing appended.

Exercise: Please give the measured Cmax for this compound: `Cc1ccc(C(=O)NNC(=O)c2c(C)cccc2Cl)cc1C#Cc1cnc2ccccc2c1`
Key: 7850

---

molecular target: Abl (M351T) (Homo sapiens, UniProt P00519, M351T); assay: Biochemical kinase assay, mutant Abl
attributeMeasured: IC50 (nM)
Just the number in nM, nothing appended.

Exercise: Please give the measured IC50 for this molecule: `Cc1ccc(C(=O)NNC(=O)c2c(C)cccc2Cl)cc1C#Cc1cnc2ccccc2c1`
Key: 0.8

---

test: Plasma pharmacokinetics, 7 once-daily oral doses, healthy volunteers; assay type: in vivo, human; settings: male, human, plasma, oral, 192 mg, Day 1, plasma, healthy volunteers; read-out: Cmax Min, Max
attributeMeasured: Cmax

Exercise: Please give the measured Cmax for this compound: `Cc1ccc(C(=O)NNC(=O)c2c(C)cccc2Cl)cc1C#Cc1cnc2ccccc2c1`
Key: 2740 to 7190 ng/mL

---

assay: Plasma pharmacokinetics, Parkinson's disease patients, once daily for 14 days; type: in vivo, human; conditions: human, 48 mg, PD patients, read-out: AUC Over Dosing Interval Min, Max
attributeMeasured: AUC

Exercise: Please give the measured AUC for this molecule: `Cc1ccc(C(=O)NNC(=O)c2c(C)cccc2Cl)cc1C#Cc1cnc2ccccc2c1`
Key: 2910 to 14200 ng·h/mL

---

test: Plasma pharmacokinetics, 7 once-daily oral doses, healthy volunteers; type: in vivo, human; conditions: male, human, plasma, oral, 384 mg, Day 1, plasma, healthy volunteers; read-out: AUC0-24 AM
attributeMeasured: AUC(0-t) (ng·h/mL)
Just the number in ng·h/mL, nothing appended.

Exercise: Please give the measured AUC(0-t) for this compound: `Cc1ccc(C(=O)NNC(=O)c2c(C)cccc2Cl)cc1C#Cc1cnc2ccccc2c1`
Key: 47600

---

assay: Plasma pharmacokinetics, Parkinson's disease patients, once daily for 14 days; format: in vivo, human; details: human, oral, 384 mg, Day 14, plasma, PD patients
attributeMeasured: Cmax (ng/mL)
Just the number in ng/mL, nothing appended.

Exercise: Please give the measured Cmax for this molecule: `Cc1ccc(C(=O)NNC(=O)c2c(C)cccc2Cl)cc1C#Cc1cnc2ccccc2c1`
Key: 4510

---

Test: Plasma pharmacokinetics, 7 once-daily oral doses, healthy volunteers
Type: in vivo, human
Conditions: male, human, plasma, oral, 192 mg, Day 1, plasma, Healthy Subjects, Table 10; read-out: Cmax Mean
Procedure: After 28 days of screening, the subjects were studied in sequential cohorts of 6 subjects each. The study was conducted for 17 days. […] After the dose, subjects continued to fast for additional 4 hours, water was allowed ad libitum with the exception of 1 hour prior and 1-hour post dose. The plasma and CSF samples were analyzed, by validated LC/MS-MS methods. […]
attributeMeasured: Cmax (ng/mL)
Just the number in ng/mL, nothing appended.

Exercise: Please give the measured Cmax for this molecule: `Cc1ccc(C(=O)NNC(=O)c2c(C)cccc2Cl)cc1C#Cc1cnc2ccccc2c1`
Key: 3780

---

assay: Plasma pharmacokinetics, 7 once-daily oral doses, healthy volunteers; assay type: in vivo, human; details: male, human, plasma, oral, 384 mg, Day 7, plasma, healthy volunteers; read-out: AUC0-24 Median
attributeMeasured: AUC(0-t) (ng·h/mL)
Just the number in ng·h/mL, nothing appended.

Exercise: Please give the measured AUC(0-t) for this molecule: `Cc1ccc(C(=O)NNC(=O)c2c(C)cccc2Cl)cc1C#Cc1cnc2ccccc2c1`
Key: 50000

---

assay: Plasma pharmacokinetics, 7 once-daily oral doses, healthy volunteers; format: in vivo, human; details: male, human, plasma, oral, 384 mg, Day 7, plasma, healthy volunteers; read-out: Tmax Min, Max
attributeMeasured: Tmax

Exercise: Please give the measured Tmax for this molecule: `Cc1ccc(C(=O)NNC(=O)c2c(C)cccc2Cl)cc1C#Cc1cnc2ccccc2c1`
Key: 2.52 to 4.03 h

---

assay: Plasma pharmacokinetics, 7 once-daily oral doses, healthy volunteers; format: in vivo, human; settings: male, human, plasma, oral, 192 mg, Day 7, plasma, healthy volunteers; read-out: AUC0-24 GM
attributeMeasured: AUC(0-t)
Please append the unit to your numeric answer.

Exercise: Please give the measured AUC(0-t) for this compound: `Cc1ccc(C(=O)NNC(=O)c2c(C)cccc2Cl)cc1C#Cc1cnc2ccccc2c1`
Key: 39100 ng·h/mL

---

Assay: Plasma pharmacokinetics, Parkinson's disease patients, once daily for 14 days
Format: in vivo, human
Conditions: human, 96 mg, PD patients, read-out: Half-Life Lambda Z Mean (converted)
Protocol: Of these, 44 subjects completed the study. An additional 10 subjects were enrolled in the open label part of the study, of these, one subject was discontinued due to an AE of vomiting. […] Vodobatinib levels in plasma and CSF were determined using a fully validated LC-MS/MS assay with lower limits of quantitation (LLOQ) of 2.5 ng/mL and 0.05 ng/mL, respectively. […]
attributeMeasured: half-life (h)
Just the number in h, nothing appended.

Exercise: Please give the measured half-life for this compound: `Cc1ccc(C(=O)NNC(=O)c2c(C)cccc2Cl)cc1C#Cc1cnc2ccccc2c1`
Key: 15.7

---

assay: Plasma pharmacokinetics, Parkinson's disease patients, once daily for 14 days; format: in vivo, human; conditions: human, 48 mg, PD patients, read-out: Half-Life Lambda Z Mean (converted)
attributeMeasured: half-life
Please append the unit to your numeric answer.

Exercise: Please give the measured half-life for this compound: `Cc1ccc(C(=O)NNC(=O)c2c(C)cccc2Cl)cc1C#Cc1cnc2ccccc2c1`
Key: 19.6 h

---

assay: Plasma pharmacokinetics, Parkinson's disease patients, once daily for 14 days; type: in vivo, human; settings: human, oral, 48 mg, Day 1, plasma, PD patients, read-out: Tmax median
attributeMeasured: Tmax (h)
Just the number in h, nothing appended.

Exercise: Please give the measured Tmax for this molecule: `Cc1ccc(C(=O)NNC(=O)c2c(C)cccc2Cl)cc1C#Cc1cnc2ccccc2c1`
Key: 4

---

assay: Plasma pharmacokinetics, Parkinson's disease patients, once daily for 14 days; type: in vivo, human; settings: human, oral, 6 mg, Day 14, plasma, PD patients
attributeMeasured: Cmax (ng/mL)
Just the number in ng/mL, nothing appended.

Exercise: Please give the measured Cmax for this compound: `Cc1ccc(C(=O)NNC(=O)c2c(C)cccc2Cl)cc1C#Cc1cnc2ccccc2c1`
Key: 182

---

assay: Plasma pharmacokinetics, 7 once-daily oral doses, healthy volunteers; assay type: in vivo, human; conditions: male, human, plasma, oral, 384 mg, Day 7, plasma, healthy volunteers; read-out: AUC0-24 GM
attributeMeasured: AUC(0-t) (ng·h/mL)
Just the number in ng·h/mL, nothing appended.

Exercise: Please give the measured AUC(0-t) for this compound: `Cc1ccc(C(=O)NNC(=O)c2c(C)cccc2Cl)cc1C#Cc1cnc2ccccc2c1`
Key: 42100

---

Assay: Plasma pharmacokinetics, 7 once-daily oral doses, healthy volunteers
Type: in vivo, human
Details: male, human, plasma, oral, 384 mg, Day 1, plasma, healthy volunteers; read-out: AUC0-24 Min, Max
Experimental: After 28 days of screening, the subjects were studied in sequential cohorts of 6 subjects each. The study was conducted for 17 days. […] After the dose, subjects continued to fast for additional 4 hours, water was allowed ad libitum with the exception of 1 hour prior and 1-hour post dose. The plasma and CSF samples were analyzed, by validated LC/MS-MS methods. […]
attributeMeasured: AUC(0-t)

Exercise: Please give the measured AUC(0-t) for this compound: `Cc1ccc(C(=O)NNC(=O)c2c(C)cccc2Cl)cc1C#Cc1cnc2ccccc2c1`
Key: 6640 to 105000 ng·h/mL

---

assay: Plasma pharmacokinetics, 7 once-daily oral doses, healthy volunteers; type: in vivo, human; settings: male, human, plasma, oral, 48 mg, Day 7, plasma, healthy volunteers; read-out: Cmax Median
attributeMeasured: Cmax (µg/mL)
Just the number in µg/mL, nothing appended.

Exercise: Please give the measured Cmax for this compound: `Cc1ccc(C(=O)NNC(=O)c2c(C)cccc2Cl)cc1C#Cc1cnc2ccccc2c1`
Key: 1.34

---

Assay: Plasma pharmacokinetics, 7 once-daily oral doses, healthy volunteers
Assay type: in vivo, human
Details: male, human, plasma, oral, 192 mg, Day 7, plasma, healthy volunteers; read-out: AUC0-24 Median
Protocol: After 28 days of screening, the subjects were studied in sequential cohorts of 6 subjects each. The study was conducted for 17 days. […] After the dose, subjects continued to fast for additional 4 hours, water was allowed ad libitum with the exception of 1 hour prior and 1-hour post dose. The plasma and CSF samples were analyzed, by validated LC/MS-MS methods. […]
attributeMeasured: AUC(0-t)

Exercise: Please give the measured AUC(0-t) for this molecule: `Cc1ccc(C(=O)NNC(=O)c2c(C)cccc2Cl)cc1C#Cc1cnc2ccccc2c1`
Key: 40100 ng·h/mL
